The measurements presented in this section are drawn from patent US9670194B2.

assay: Compound stability in human liver microsomes; assay type: in vitro ADME; conditions: human liver microsomes 0.5 mg protein/mL, compound 5 μM, NADPH 1.0 mM, 37° C.
// reported half-life at 5 μM per item
resultType: half-life at 5 μM (min)

> print(dat)
                                    compound  unitssymbol  recordedmeasurement
 1  CC[C@H](Nc1ncnc(N)c1-c1noc(C)n1)c1nc2cccc(Cl)c2c(=O)n1C1CC1 [Ex. 12]          min                 20.6
 2  CC[C@H](Nc1ncnc(N)c1-c1ncn(C)n1)c1nc2cccc(Cl)c2c(=O)n1-c1ccc(F)cc1 [Ex. 50]          min                 11.4
 3  CC[C@H](Nc1ncnc(N)c1-c1nnc(C)o1)c1nc2cccc(C)c2c(=O)n1C1CC1 [Ex. 20]          min                 9.96
 4  CC[C@H](Nc1ncnc(N)c1-c1nc(C)co1)c1nc2cccc(C)c2c(=O)n1-c1ccccc1C [Ex. 29]          min                 1.92
 5  Cc1noc(-c2c(N)ncnc2N[C@@H](C)c2nc3cccc(Cl)c3c(=O)n2-c2ccccc2)n1 [Ex. 65]          min                 33.1
 6  CC[C@H](Nc1ncnc(N)c1-c1nnc(C)o1)c1nc2cccc(Cl)c2c(=O)n1C1CC1 [Ex. 2]          min                 32.1
 7  C[C@H](Nc1ncnc(N)c1-c1nnn(C)n1)c1nc2cccc(Cl)c2c(=O)n1C1CC1 [Ex. 42]          min                 42.4
 8  Cc1nc(-c2c(N)ncnc2N[C@@H](C)c2nc3cccc(Cl)c3c(=O)n2C2CC2)no1 [Ex. 33]          min                 11.9
 9  CC[C@H](Nc1ncnc(N)c1-c1nc(C)no1)c1nc2cccc(Cl)c2c(=O)n1-c1ccccc1 [Ex. 3]          min                 36.7
10  CC[C@H](Nc1ncnc(N)c1-c1nc(C(N)=O)n(C)n1)c1nc2cccc(Cl)c2c(=O)n1C1CC1 [Ex. 58]          min                 61.8

====

experiment: Pharmacokinetics after intravenous and oral administration in rats; type: in vivo, rat; details: rat, plasma, iv dose 1 mg/kg, oral dose generally 5 or 10 mg/kg
resultType: bioavailability (%)

> print(dat)
                       smilesrepresentation  recordedmeasurement
1  CCc1noc(-c2c(N)ncnc2N[C@@H](CC)c2nc3cccc(Cl)c3c(=O)n2C2CC2)n1                 60.9
2  CC[C@H](Nc1ncnc(N)c1-c1nc(C)no1)c1nc2cccc(Cl)c2c(=O)n1-c1ccccc1                 64.5
3  CC[C@H](Nc1ncnc(N)c1-c1ccon1)c1nc2cccc(Cl)c2c(=O)n1C1CC1                 23.1
4  CC[C@H](Nc1ncnc(N)c1-c1noc(C)n1)c1nc2cccc(C)c2c(=O)n1-c1ccccc1C                 36.4
5  Cc1noc(-c2c(N)ncnc2N[C@@H](C)c2nc3cccc(Cl)c3c(=O)n2-c2ccccc2)n1                 88.7
6  CC[C@H](Nc1ncnc(N)c1-c1ncn(C)n1)c1nc2cccc(C)c2c(=O)n1-c1ccccc1C                 22.4
7  CC[C@H](Nc1ncnc(N)c1-c1noc(C)n1)c1nc2cccc(Cl)c2c(=O)n1-c1ccccc1                 11.4
